protocol.description: Plasma concentration of mivorilaner, 0.75 mg/kg daily oral (Examples 4 and 10)
Format: in vivo, dogs
protocol.conditions: dog, 0.75 mg/kg/day, 0.75 mg/kg/day oral days 0-29, Day 14, read-out: Mivorilaner Concentration, Average of 6 canines
endpoint: concentration at 14 day (ng/mL)
Note: unit ng/mL is implicit; provide only the numeric part.

Entry under test: O=C(CNC(=O)c1sc(C2=NO[C@@](c3cc(Cl)c(F)c(Cl)c3)(C(F)(F)F)C2)c2c1CCC2)NCC(F)F . Its concentration at 14 day was 2100
